Molecular target: human Prostaglandin D Synthase (GST2) (Homo sapiens, UniProt O60760)
Construct: the open reading frame of human Prostaglandin D Synthase was amplified from cDNA; made in house; host or cells: E. coli TOP10F'
Sequence (O60760 whole entry): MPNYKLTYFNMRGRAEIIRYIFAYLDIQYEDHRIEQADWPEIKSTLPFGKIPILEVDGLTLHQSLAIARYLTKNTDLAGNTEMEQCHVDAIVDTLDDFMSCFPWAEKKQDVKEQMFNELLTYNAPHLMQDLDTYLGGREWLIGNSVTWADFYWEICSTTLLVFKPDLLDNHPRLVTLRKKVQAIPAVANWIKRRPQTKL
Assay: Homogeneous biochemical assay of human Prostaglandin D Synthase (GST2) based on its glutathion-S-transferase activity (GSH conjugation to monochlorobimane, fluorescence)
Conditions: Table 3; read-out: GST2 IC50 range
The entries below are paired with their reported IC50.

INSERT INTO results (compound, target_or_test_system, observed) VALUES
  ('O=C(Nc1ccc(C(F)(F)F)cc1)N1CCN(C(=O)c2cccc(F)n2)CC1 [Compound 22]', 'human Prostaglandin D Synthase (GST2) (Homo sapiens, UniProt O60760)', '101 to 1000 nM'),
  ('Cn1cnnc1-c1cccc(NC(=O)N2CCN(C(=O)c3cccc(F)c3)CC2)c1 [Compound 76]', 'human Prostaglandin D Synthase (GST2) (Homo sapiens, UniProt O60760)', '11 to 100 nM'),
  ('Cc1nc(-c2cccc(NC(=O)N3CCN(C(=O)c4cccc(F)c4)CC3)c2)no1 [Compound 30]', 'human Prostaglandin D Synthase (GST2) (Homo sapiens, UniProt O60760)', '11 to 100 nM'),
  ('O=C(Nc1ccc(N2CCN(C(=O)OC3CCOC3)CC2)c(F)c1)N1CCN(C(=O)c2cccc(F)c2)CC1 (racemic) [Compound 59]', 'human Prostaglandin D Synthase (GST2) (Homo sapiens, UniProt O60760)', '11 to 100 nM');

Turning to the following compound.
// field: IC50; key: O=C(Nc1nc(-c2ccccc2)cs1)N1CCN(C(=O)c2cccc(F)c2)CC1 [Compound 69] ; value = 11 to 100 nM

Cited source for all entries: patent US20100234377A1
